tested on: tubulin; test: Inhibition of tubulin polymerization; type: biochemical; conditions: Tubulin was at 10 μM; read-out: tubulin IC50 ± SD (inhibition of tubulin polymerization)
A collection of compounds and their measured IC50
Give your result in µM as a bare value.

| Structure smiles | Measurement label | Data value |
| --- | --- | --- |
| O=C(NC(=O)c1ccccc1[N+](=O)[O-])Nc1ccc(Sc2ncc(Br)cn2)cc1 | IC50 | 2.1 |
| O=C(NC(=O)c1ccccc1[N+](=O)[O-])Nc1ccc(Oc2nccc(Br)n2)cc1 | IC50 | 4.7 |

Enquiry: Fill in the blank: the reported IC50 of `Nc1ccccc1C(=O)NC(=O)Nc1ccc(Oc2nccc(Br)n2)cc1` is ____.
Return: 36
